systemName: LYPLA2
assayDetails: LYPLA2 enzyme kinetics with inhibitors – biochemical, substrate-based fluorescence, Ki, Km, Vmax, late-stage follow-up (AID 652001)
cond: recombinant LYPLA2, resorufin acetate hydrolysis fluorescence, Ki from Cheng-Prusoff
propertyLabel: pKi
The quantity pKi is defined as the negative base-10 logarithm of the molar concentration.

// query Consider the compound COc1ccc(N2CCN(C(=O)c3cc4c(s3)-c3ccccc3S(=O)(=O)C4)CC2)cc1 and give its recorded pKi.
// result 6.64
